Value source: PubChem BioAssay (NCI)

# Tested on: SK-MEL-28 melanoma
# method notes: NCI-60 one-dose screen, 48 h
# run conditions: 10 µM unless noted
The panel holds about 83,000 compounds, 20% with a hit somewhere; the sample as a whole holds those more often. Active and inactive are the calls of the source. Rule for the calls: active = growth percent below 10; inactive = the rest.
Classes used: active, inactive

| compound | label value |
| --- | --- |
| Cc1ccccc1N1C(c2ccccc2)=NNC12C=CC(=O)c1c(O)cccc12 (stereo not given) | inactive |
| CC(=O)O[C@H]1[C@H](CC#CC#CC[C@@H]2C[C@]3(C)[C@H]4CC=C5[C@H]6[C@@H](C)[C@H](C)CC[C@]6(C(=O)NCCN(CCN)CCN)CC[C@@]5(C)[C@]4(C)CC[C@H]3C(C)(C)[C@H]2OC(C)=O)C[C@]2(C)[C@H]3CC=C4[C@H]5[C@@H](C)[C@H](C)CC[C@]5(C(=O)NCCN(CCN)CCN)CC[C@@]4(C)[C@]3(C)CC[C@H]2C1(C)C | inactive |
| COc1ccc2c(c1)N(CCO)C1=C(C(=O)OC1)C2c1cccc(Br)c1 (stereo not given) | inactive |
| CC(C)NC(=O)OCC#CCOC(=O)NC(C)C | inactive |
| COc1cc2c(cc1I)-c1c(cc(OC)c(OC)c1OC)CC[C@@H]2NC(C)=O | inactive |
| CCCCCCCCCCCCCCCc1cc(O)ccc1[N+](=O)[O-] | inactive |
| CC1=C(C(=O)Nc2ccc(F)cc2)C(c2ccccc2)C2=C(CC(C)(C)CC2=O)N1 (stereo not given) | inactive |
| Oc1c(-c2cc(C(F)(F)F)[nH]n2)cc(Cl)c(OCc2ccc(Cl)cc2)c1-c1ccc(Cl)c(C(F)(F)F)c1 | active |
| COc1cc2c(cc1OCCCOc1cc3c(cc1OC)C(=O)N1CCC[C@H]1C=N3)C=CC(C)(C)O2 | inactive |
| COc1cc(NC(C)CCCN)c2ncccc2c1Sc1ccc(Cl)cc1 (stereo not given) | inactive |
| [O-]/[N+](=C\c1ccccc1)CC1(O)CCCCC1 | inactive |
| CN1CCN(Cc2ccc(NC(=O)c3cncc(C#Cc4ncc5cnccn45)c3)cc2C(F)(F)F)CC1 | inactive |
| COc1ccc(C2=Nn3c(nnc3-c3ccc(Cl)cc3N)SC2)cc1 | inactive |
| Nc1nc2c(c3ncccc13)C(c1ccccc1)Cc1ncccc1-2 (stereo not given) | inactive |
| CCOC(=O)C(Nc1ccccc1)C(=O)OCC | inactive |
| c1ccc(-c2[nH]c3ccccc3c2-c2ccccc2)cc1 | inactive |
| COCCn1c(Nc2ccc(C(=O)NO)cc2)nc2ccccc21 | inactive |
| CCOC(=O)Nc1ccc2nc(-c3cscn3)[nH]c2c1 | inactive |
| COc1cc(-c2n/c(=C\c3c(O)[nH]c4cc(Cl)ccc34)cc3c2=Nc2ccccc2-3)cc(OC)c1OC | inactive |
| CNC(=O)c1cc(Oc2ccc(NC(=O)c3nc(S(C)(=O)=O)n(C)c3-c3ccc(F)cc3)cc2)ccn1 | inactive |
| COc1cc(C(=O)/C=C/c2cn(-c3ccccc3)nc2-c2cccc(Nc3ccnc4cc(Cl)ccc34)c2)cc(OC)c1OC | inactive |
| Cc1[nH]n(C(=O)c2ccncc2)c(=O)c1N=Nc1ccc(O)c(C(=O)O)c1 | inactive |
| CCOCC(O)(c1ccc(Cl)cc1)c1ccc(Cl)cc1 | inactive |
| CCc1ccc2c(c1)N(CCO)C1=C(C(=O)OC1)C2c1cccc(Cl)c1 (stereo not given) | inactive |
| c1ccc(C2=Nc3ccccc3SC2)cc1 | inactive |
| O=C1c2ccccc2C2N1CCC1CCc3ccccc3N12 (stereo not given) | inactive |
| CCOC(=O)c1sc2nc(-c3cc4ccccc4o3)cc(-c3ccc(Cl)cc3)c2c1N | inactive |
| CSCCC1NC(=O)C(C(C)=Nc2ccccc2)=C1O (stereo not given) | inactive |
| Cc1nc2ccc(Nc3nc(NCCN4CCOCC4)nc(Nc4ccc(F)cc4)n3)cc2n1Cc1ccccc1 | active |
| O=c1[nH]c2cc(Cl)c(Cl)cc2o1 | inactive |
| CN=C1C=C/C(=N/N=c2/ccn(O)cc2C)C=C1C | inactive |
| COc1cc2c(cc1OC)C(=O)OC2 | inactive |
| Clc1ccc2c(c1)-c1ccccc1C1=NCCN12 | inactive |
| COc1ccc(C(=O)/C=C/c2cn(-c3ccccc3)nc2-c2cccc(Nc3ccnc4cc(Cl)ccc34)c2)cc1 | inactive |
| Cc1cc(C)c2c(n1)sc1c(Nc3ccc(OCc4ccccc4)cc3)ncnc12 | inactive |
| COc1cc(NCCCCC(C)N)c2nccc(C)c2c1 (stereo not given) | inactive |
| C=CC[C@]1(O)CC[C@H]2[C@@H]3CCc4cc(O)ccc4[C@H]3CC[C@@]21C | inactive |
| Clc1ccccc1Nc1nnc(-c2ccncc2)s1 | inactive |
| CCCCOc1ncnc2nc[nH]c12 | inactive |
| Cc1ccc(NC(=O)c2nc(S(C)(=O)=O)oc2-c2ccc(F)cc2)cc1Nc1ccc2ncn(C)c(=O)c2c1 | inactive |
